Biological target: ATP-binding cassette sub-family B member 6 (Homo sapiens)
Test: ABCB6 transporter inhibitors, pilot screen, K562-ABCB6 cells, flow cytometry, validation set (AID 588550);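 note: 0% = DMSO wells and 100% = benzethonium chloride 70 µM positive control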
Settings: K562-ABCB6 porphyrin accumulation, 1 h, at 10 µM, stronger effect = higher value
readout_name: inhibition (%)

INSERT INTO assay_data (compound, numeric_result) VALUES
  ('CN(CCc1cnn(C)c1)Cc1nc(CC2CC2)no1', 8),
  ('CC(C)(C)c1ccc(C(O)CCCN2CCC(C(O)(c3ccccc3)c3ccccc3)CC2)cc1 (stereo unspecified)', 10),
  ('CC(C)Cc1nc(NCCN2CCOCC2)c(C#N)c2c1COC(C)(C)C2', -5),
  ('CCn1c(=N)c(C(=O)NC)cc2c(=O)n3cccc(C)c3nc21', 5),
  ('Cc1cccc(C2=N/C(=C\c3cccnc3)C(=O)O2)c1', 3),
  ('CN(C)c1cc(NC(=O)CN2CCOCC2)c2ccccc2n1', 15);

----------
Target: Integrin beta-1 (Homo sapiens) + Integrin alpha-4 (Homo sapiens) (UniProt P13612+P05556)
Sequence (P05556 whole entry, looked up): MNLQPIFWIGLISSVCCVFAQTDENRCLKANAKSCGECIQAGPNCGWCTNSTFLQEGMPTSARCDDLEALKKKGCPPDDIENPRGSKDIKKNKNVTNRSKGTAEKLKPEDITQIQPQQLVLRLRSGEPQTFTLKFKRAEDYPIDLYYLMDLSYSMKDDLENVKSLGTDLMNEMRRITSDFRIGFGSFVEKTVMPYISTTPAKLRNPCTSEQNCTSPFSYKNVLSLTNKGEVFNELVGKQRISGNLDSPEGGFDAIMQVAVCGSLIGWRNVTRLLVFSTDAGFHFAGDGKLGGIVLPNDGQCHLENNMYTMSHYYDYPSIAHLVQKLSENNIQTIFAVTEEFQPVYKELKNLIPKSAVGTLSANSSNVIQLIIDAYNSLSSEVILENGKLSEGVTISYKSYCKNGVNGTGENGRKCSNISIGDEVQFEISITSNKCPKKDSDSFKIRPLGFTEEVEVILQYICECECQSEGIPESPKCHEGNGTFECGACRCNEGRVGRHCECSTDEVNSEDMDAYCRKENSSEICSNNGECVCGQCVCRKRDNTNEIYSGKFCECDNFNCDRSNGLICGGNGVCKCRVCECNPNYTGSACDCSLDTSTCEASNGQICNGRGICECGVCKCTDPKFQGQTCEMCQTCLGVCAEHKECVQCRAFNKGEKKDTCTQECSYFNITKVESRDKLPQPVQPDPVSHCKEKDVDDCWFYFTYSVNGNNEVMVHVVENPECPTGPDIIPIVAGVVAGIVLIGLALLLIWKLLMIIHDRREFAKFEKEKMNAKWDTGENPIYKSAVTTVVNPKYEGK
Sequence (P13612 whole entry, looked up): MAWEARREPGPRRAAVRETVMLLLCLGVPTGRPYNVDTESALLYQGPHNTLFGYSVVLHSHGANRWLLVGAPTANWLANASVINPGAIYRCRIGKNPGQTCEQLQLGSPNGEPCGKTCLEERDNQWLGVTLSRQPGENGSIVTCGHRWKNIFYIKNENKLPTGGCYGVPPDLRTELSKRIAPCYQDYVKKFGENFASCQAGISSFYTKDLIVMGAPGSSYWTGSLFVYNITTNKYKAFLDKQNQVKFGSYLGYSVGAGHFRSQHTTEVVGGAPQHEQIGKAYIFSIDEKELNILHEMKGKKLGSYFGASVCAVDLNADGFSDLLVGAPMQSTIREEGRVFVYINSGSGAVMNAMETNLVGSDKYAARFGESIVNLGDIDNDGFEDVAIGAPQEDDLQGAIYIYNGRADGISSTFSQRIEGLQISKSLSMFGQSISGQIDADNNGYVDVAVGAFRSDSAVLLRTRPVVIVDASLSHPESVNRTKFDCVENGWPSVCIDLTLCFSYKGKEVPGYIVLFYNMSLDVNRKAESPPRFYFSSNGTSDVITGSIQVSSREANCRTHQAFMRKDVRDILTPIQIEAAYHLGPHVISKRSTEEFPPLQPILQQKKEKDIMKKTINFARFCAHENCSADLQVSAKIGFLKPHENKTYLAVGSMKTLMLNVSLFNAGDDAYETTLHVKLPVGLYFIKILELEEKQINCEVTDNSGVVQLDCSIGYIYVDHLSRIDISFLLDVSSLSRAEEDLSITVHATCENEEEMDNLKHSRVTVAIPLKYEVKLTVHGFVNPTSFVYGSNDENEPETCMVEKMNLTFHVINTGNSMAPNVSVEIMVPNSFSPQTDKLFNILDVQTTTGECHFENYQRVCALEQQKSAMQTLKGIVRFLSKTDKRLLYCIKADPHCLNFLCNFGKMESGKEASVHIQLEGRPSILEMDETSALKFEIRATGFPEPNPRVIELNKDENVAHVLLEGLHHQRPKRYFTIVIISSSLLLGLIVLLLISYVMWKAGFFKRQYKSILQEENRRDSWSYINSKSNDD
Test: inhibition of HUTS-21 binding to VLA-4, pilot screen, VLA-4 allosteric modulator project, U937 cells, HUTS-21 mAb, flow cytometry, validation set (AID 2674);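 note: antibody binding induced by the VLA-4 ligand LDV present at three times its Kd; 0% = LDV ligand with antibody and no compound and 100% = antibody without LDV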
Settings: HUTS-21 LIBS mAb binding, at 6.7 µM, stronger effect = higher value, binding induced by LDV ligand
readout_name: inhibition (%)

INSERT INTO assay_data (compound, readout_name, numeric_result) VALUES
  ('COc1ccc2c(c1OC)C(=O)NC(C)=C(C(=O)OC(C)(C)C)C2O (stereo unspecified)', 'inhibition', 5.03),
  ('Cc1oc2cc(O)ccc2c(=O)c1Oc1ccccc1Br', 'inhibition', -12.4),
  ('NC12CC3CC(C1)CC(O)(C3)C2', 'inhibition', 2.66),
  ('CN(C)CCOc1ccc(Cl)cc1C(C)(C)C', 'inhibition', 7.76),
  ('CCOc1ccc(CC2c3cc(OCC)c(OCC)cc3CCN2C(=O)CN2CCN(C)CC2)cc1OCC (stereo unspecified)', 'inhibition', -11.3),
  ('COc1ccc(C2NC(=O)c3ccccc3N2)cc1OC (stereo unspecified)', 'inhibition', 10.9);

----------
Assay: LAP4-GFP expression modulators in yeast, confirmation, cell-based, cherry picks, flow cytometry, mother/daughter gates (AID 2271);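 note: ratio of sample to DMSO plate mean so 100% equals DMSO level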
Conditions: S. cerevisiae LAP4-GFP strain, 3 h, measured here: mother cell gate response, at 10 µM, stronger effect = higher value, 100 means same as DMSO control
readout_name: GFP response relative to DMSO (%)

INSERT INTO results (compound, numeric_result) VALUES
  ('COc1ccc(C2CC(c3c(-c4ccccc4)c4cc(Cl)ccc4[nH]c3=O)=NN2S(C)(=O)=O)cc1OC (stereo not given)', 89.7),
  ('Fc1cccc(Cl)c1Cn1ncc2ccccc21', 100),
  ('Cc1ccc(-c2nnn(CC(=O)N(CC(=O)NC3CCCC3)c3ccc(F)cc3)n2)o1', 96.2),
  ('COc1ccc(N(CC(=O)N/N=C/c2cc(OC)ccc2OC)S(=O)(=O)c2ccccc2)cc1', 92.9),
  ('COc1ccc(-c2nn(-c3ccccc3)cc2C(=O)NC(=S)NNC(=O)c2ccncc2)cc1', 105);

----------
Test: modulators of CIT2-GFP expression in yeast, confirmation, S. cerevisiae, GFP fusion, cherry picks, mother/daughter gates (AID 2274)
Conditions: S. cerevisiae CIT2-GFP strain, flow cytometry, 3 h; measured here: mother cell gate; at 10 µM; stronger effect = higher value
Overview of reported GFP response, % of DMSO across a group of compounds:
readout_name: GFP response, % of DMSO (%)

INSERT INTO assay_data (chemical_string, units, numeric_result) VALUES
  ('CCOC(=O)c1sc(NC(=O)c2ccc3ncsc3c2)nc1C', '%', 93.8),
  ('c1ccc2oc(SCc3nc4ccccc4s3)nc2c1', '%', 99.7),
  ('O=C1c2ccsc2SCCN1Cc1ccc(F)cc1', '%', 89.5),
  ('Cc1ccc(-c2ccc(/C=N/NC(N)=S)o2)cc1', '%', 96.6),
  ('Cc1[nH][nH]c(=O)c1C(c1ccc(-c2ccc(Cl)cc2)o1)c1c(C)[nH][nH]c1=O', '%', 95.6),
  ('Cc1ccc(-c2nc(NC(=O)c3nn(C)cc3[N+](=O)[O-])sc2C)cc1C', '%', 93.3);
